Just for reference, the supplement of paper PMC10126150 is where these values come from.

Exercise: state measured switch fluorescence ratio for each of the sequences provided.
System: ATP;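 further: ATP exposure 15 min at 22 °C before imaging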
Assay: switch fluorescence ratio, 500 uM ATP over buffer (Cy3 cluster intensity, sum of 5 cycles each) (fold (ratio)); higher = stronger signal-on switching upon ATP binding; sequences stand for … in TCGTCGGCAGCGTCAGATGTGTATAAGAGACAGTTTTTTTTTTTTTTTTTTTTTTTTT…TC
Conditions: aptamer strand: ATP DNA aptamer (quencher-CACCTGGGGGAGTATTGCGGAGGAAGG + anchor), 100 nM annealed; ATP concentration: 500 uM
Numbers only.

Worked set:
# Polymer sequence, Tested on, Readout kind, Reading
records = [
    ("TCTTTTTTGG", "ATP", "switch fluorescence ratio", 1),
    ("TGTGAAAAAG", "ATP", "switch fluorescence ratio", 0.976),
    ("GGAAAAGTTT", "ATP", "switch fluorescence ratio", 0.986),
    ("GGATGCGCCT", "ATP", "switch fluorescence ratio", 1.06),
    ("AGAGTTCTCG", "ATP", "switch fluorescence ratio", 0.978),
]

Please give switch fluorescence ratio, item by item, for the list that follows.
1. AAAGTGATAT
2. TACGAGAGCC
3. TTGGTGGTGG
4. GCTTGTGCAT

1.01
1.04
1.01
0.989

Please give switch fluorescence ratio, item by item, for the list that follows.
1. TTTCGTTGTA
2. GTGATCGGGT
3. CATCTCTTGC

1: 0.973; 2: 1.02; 3: 1.07

Please give switch fluorescence ratio, item by item, for the list that follows.
1. TTCGGACCTT
2. GAGGTTGCCG
3. TTTTATCCGT
4. GGACAAGGGT
5. TGGGAAGAGC
6. TTGGGTTTTC
7. GATGCACCGA
8. AGGGACATGC

[1.21, 0.951, 1.06, 1.02, 1.02, 1.03, 1.06, 1.06]
